Source: patent EP3088890B1

molecular target: T1, AW3, C-terminally His-tagged recombinant product of positions 1 to 218 of GPC3 (human, UniProt P51654 25-218); assay: Western blot, pellets of CHO cells expressing the product
T1 construct: Expressed in CHO cells, cell pellets used in Western blot; The range is as printed and starts at position 1; not shown: C-terminal His tag
T1 sequence (P51654 25-218): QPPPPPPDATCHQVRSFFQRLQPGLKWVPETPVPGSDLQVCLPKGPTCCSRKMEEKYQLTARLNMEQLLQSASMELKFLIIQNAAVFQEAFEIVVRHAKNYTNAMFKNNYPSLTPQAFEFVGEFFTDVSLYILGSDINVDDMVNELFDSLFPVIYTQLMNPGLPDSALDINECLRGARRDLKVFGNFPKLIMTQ

{"binder": "GT30 antibody (antibody, IgG1, V domains shown) VH: QVQLQQSGAELARPGASVKLSCRASGYTFTSYGISWMMQRTGQGLEWIGEIYPRSGITYYNEKFKGKATLTADKSSSTAYMQLSSLTSEDSAVYFCARDVSDGYLFPYWGQGTLVTVSA VL: DIQMTQSPASLSASVGETVTITCRTSENIYSYLAWYQQKQGKSPQLLVYNAKTLPEGVPSRFSGSGSGTQFSLKINSLQPEDFGSYYCQHHYGTPPTFGGGTKLEIKR", "binding result": "no binding"}
{"binder": "GT607 antibody (antibody, IgG1, V domains shown) VH: EVQLVESGGDVVRPGGSLKLSCAASGFTFSSYGMSWVRQLPDKRLEWVASVGNGGSYRYYPENLKGRFTISRDNTKNTLYLQISGLKSEDTAIYYCARRGAFPYFDVWGAGTTVTVSS VL: QIVLTQSPAIMSASPGEKVTLACSASSSVTYMHWYQQKSGTSPKRWIYETSKLASGVPPRFSGSGSGTSYSLTISTMEAEDAATYYCQQWSSNPLTFGAGTKLELKR", "binding result": "no binding"}
{"binder": "GT165 antibody (antibody, IgG1, V domains shown) VH: QVQLQQSGAELVGPGASVKISCKAFGYTFTNHHINWVKQRPGQGLDWIGYINPYNDYTNYNQKFKGKATLTVDKSSSTAYMELSSLTSEDSAVYYCARSDPAWFAYWGQGTLVTVSA VL: DIQMTQSPSSLSASLGGKVTITCKASQDINKNIAWYQHKPGKGPRLLIWYTYTLQPGIPSRFSGSGSGRDYSFSISNLEPEDIATYYCLQYDNLPFTFGTGTKLEIKR", "binding result": "no binding"}
{"binder": "GT114 antibody (antibody, IgG1, V domains shown) VH: DVQLQESGPGLVKPSQSLSLTCTVTGYSITSDSAWNWIRQFPGNKLEWMAYIMYSGITSYNPSLKSRISITRDTAKNQFFLQLNSVTTEDSATYYCSRGYWYFDVWGAGTTVTVSS VL: QIVLTQSPAIMSASLGEEITLTCSASSSVSYMHWYQQKSGTSPKLLIYSTSILASGVPSRFSGSGSGTFYSLTISSVEAEDAADYYCLQWITYRTFGGGTKLEIKR", "binding result": "no binding"}
